target: human recombinant bradykinin B1 receptor (Homo sapiens)
Construct: host or cells: CHO cells
Sequence (P46663 whole entry): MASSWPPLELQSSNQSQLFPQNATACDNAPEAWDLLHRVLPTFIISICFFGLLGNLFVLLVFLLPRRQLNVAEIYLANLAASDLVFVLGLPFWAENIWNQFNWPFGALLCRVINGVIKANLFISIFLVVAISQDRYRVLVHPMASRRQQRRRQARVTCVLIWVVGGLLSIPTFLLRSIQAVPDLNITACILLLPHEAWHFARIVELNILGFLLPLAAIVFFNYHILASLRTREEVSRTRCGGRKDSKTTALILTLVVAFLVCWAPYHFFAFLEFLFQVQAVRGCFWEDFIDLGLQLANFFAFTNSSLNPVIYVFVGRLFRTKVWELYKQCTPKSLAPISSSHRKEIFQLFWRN
experimental-details: Human recombinant bradykinin B1 receptor binding
conditions-used: reference compounds, binding test; read-out: Ki
assay-endpoint: Ki (nM)
One number for each entry, in nM.

Lookup result for CCCN1C(=O)[C@H](NC(=O)Nc2ccc(N3CCC(N4CCCCC4)CC3)cc2)N=C(c2ccc(C)cc2)c2ccccc21 [reference compound] ; measured Ki: 13.4
